Source of measurements: PubChem BioAssay

Assay Text: viability loss with induced miR-34 in A549 – imaging, A549 dox-inducible miR-34, nuclei and caspase counts, primary screen (AID 1347080); note: test concentration not given here
Measurement Context: A549 miR-34 inducible, Hoechst nuclei count, 48 h; measured here: relative caspase fold change +Dox/-Dox
Values of fold change greater than or equal to 1 map to Criterion met; values below map to Criterion not met.

Past entries and their recorded results:
hey, is fold change for this one >= 1? O=C(NOCC1CC1)c1cc(Br)c(F)c(F)c1Nc1ccc(I)cc1Cl
Criterion met

Record O=C(O)C1OC(Oc2cc3oc(-c4ccccc4)cc(=O)c3c(O)c2O)C(O)C(O)C1O (centres undefined) ; criterion: fold change no lower than 1. Met?
Criterion met

Textbook exercise: given the entry O=C(O)C1CCNCC1 , state whether its fold change is greater than or equal to 1.
Criterion not met

Please indicate if the recorded fold change for N[C@@H]1CCCC[C@H]1N.O=C(O)C(=O)O.[Pt] meets or exceeds 1.
Criterion met

# bool: fold change of Fc1cccc(F)c1-c1nc2c(cnn2Cc2cccs2)[nH]1 >= 1
Criterion met

Continuing:
Has CC(=O)[C@H]1CC[C@H]2[C@@H]3C=CC4=CC(=O)CC[C@@]4(C)[C@H]3CC[C@]12C a recorded fold change greater than or equal to 1?
Criterion not met

Determine whether this compound has fold change no lower than 1: CC(=O)O[C@@]12COC1CC(O)[C@@]1(C)C(=O)C(O)C3=C(C)C(OC(=O)C(O)C(NC(=O)OC(C)(C)C)c4ccccc4)C[C@](O)(C(OC(=O)c4ccccc4)C21)C3(C)C (some centres undefined)
Criterion met

For this compound, is measured fold change 1 or higher? COCC(=O)NCC=Cc1ccc2ncnc(Nc3ccc(Oc4ccc(C)nc4)c(C)c3)c2c1
Criterion met

Exam item: decide whether the reported fold change for C[C@]12CCC(=O)C=C1[C@@H]1C[C@@H]1[C@H]1[C@@H]3[C@@H]4C[C@@H]4[C@]4(CCC(=O)O4)[C@@]3(C)CC[C@H]12 is at least 1.
Criterion not met
